test system: 565726-208-R1-J5-PDC complex spheroids, growth inhibition; assay: Anticancer human tumor 565726-208-R1-J5-PDC patient-derived pancreatic adenocarcinoma cell line growth inhibition [RAS]; settings: second compound 0.316 µM; first compound 0.00316 µM; hits give low values
endpoint: viability, T/C (%)
Return type: number; implicit unit %.

Example entries and their recorded answers appear below.
compound	unitString	viability, T/C
CC(C)n1nc(-c2ccc3oc(N)nc3c2)c2c(N)ncnc21 + C=CC(=O)N1CCN(c2nc(OCC3CCCN3C)nc3c(F)c(-c4nc(N)cc(C)c4C(F)(F)F)c(Cl)cc23)C(C)C1	%	70.7
C=CC(=O)Nc1cc(Nc2nccc(-c3cn(C)c4ccccc34)n2)c(OC)cc1N(C)CCN(C)C + C=CC(=O)N1CCN(c2nc(OCC3CCCN3C)nc3c(F)c(-c4nc(N)cc(C)c4C(F)(F)F)c(Cl)cc23)C(C)C1	%	161
C=CC(=O)Nc1cc(Nc2nccc(-c3cn(C)c4ccccc34)n2)c(OC)cc1N(C)CCN(C)C + C#Cc1c(F)ccc2cc(O)cc(-c3ncc4c(N5CC6CCC(C5)N6)nc(OCC56CCCN5CC(F)C6)nc4c3F)c12	%	127
CCN1CCN(Cc2ccc(Nc3ncc(F)c(-c4cc(F)c5nc(C)n(C(C)C)c5c4)n3)nc2)CC1 + C=CC(=O)N1CCN(c2nc(OCC3CCCN3C)nc3c(F)c(-c4nc(N)cc(C)c4C(F)(F)F)c(Cl)cc23)C(C)C1	%	141
O=C(c1ccc(F)c(F)c1Nc1ccc(I)cc1F)N1CC(O)([C@@H]2CCCCN2)C1 + C=CC(=O)N1CCN(c2nc(OCC3CCCN3C)nc3c(F)c(-c4nc(N)cc(C)c4C(F)(F)F)c(Cl)cc23)C(C)C1	%	154
C=CC(=O)N1CCN(c2nc(OCC3CCCN3C)nc3c(F)c(-c4nc(N)cc(C)c4C(F)(F)F)c(Cl)cc23)C(C)C1 (stereo unspecified) + C#Cc1c(F)ccc2cc(O)cc(-c3ncc4c(N5CC6CCC(C5)N6)nc(OCC56CCCN5CC(F)C6)nc4c3F)c12	%	94.2
Nc1ccn(C2OC(CO)C(O)C2(F)F)c(=O)n1 (stereo unspecified) + C#Cc1c(F)ccc2cc(O)cc(-c3ncc4c(N5CC6CCC(C5)N6)nc(OCC56CCCN5CC(F)C6)nc4c3F)c12	%	122
Nc1ccn(C2OC(CO)C(O)C2(F)F)c(=O)n1 (stereo unspecified) + C=CC(=O)N1CCN(c2nc(OCC3CCCN3C)nc3c(F)c(-c4nc(N)cc(C)c4C(F)(F)F)c(Cl)cc23)C(C)C1	%	139

The value of viability, T/C measured for the compound O=C(c1ccc(F)c(F)c1Nc1ccc(I)cc1F)N1CC(O)([C@@H]2CCCCN2)C1 + C#Cc1c(F)ccc2cc(O)cc(-c3ncc4c(N5CC6CCC(C5)N6)nc(OCC56CCCN5CC(F)C6)nc4c3F)c12 turned out to be 117

The value of viability, T/C measured for the compound CCN1CCN(Cc2ccc(Nc3ncc(F)c(-c4cc(F)c5nc(C)n(C(C)C)c5c4)n3)nc2)CC1 + C#Cc1c(F)ccc2cc(O)cc(-c3ncc4c(N5CC6CCC(C5)N6)nc(OCC56CCCN5CC(F)C6)nc4c3F)c12 turned out to be 116

The value of viability, T/C measured for the compound CC(C)n1nc(-c2ccc3oc(N)nc3c2)c2c(N)ncnc21 + C#Cc1c(F)ccc2cc(O)cc(-c3ncc4c(N5CC6CCC(C5)N6)nc(OCC56CCCN5CC(F)C6)nc4c3F)c12 turned out to be 83.5

###

tested on: 565726-208-R1-J5-PDC complex spheroids, growth inhibition; assay: Anticancer human tumor 565726-208-R1-J5-PDC cell line growth inhibition [RAS]; settings: second compound 0.0949 µM; first compound 0.000949 µM; hits give low values;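 further: spheroids exposed to compounds for seven days before readout; 100% = DMSO vehicle control viability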
// values below are reported viability, T/C
Return type: number; implicit unit %.

Example entries and their recorded answers appear below.
molecule	unitString	viability, T/C
CCc1c2c(nc3ccc(O)cc13)-c1cc3c(c(=O)n1C2)COC(=O)[C@]3(O)CC + CCn1c(-c2cc(N3CCN(C)CC3)cnc2C(C)OC)c2c3cc(ccc31)-c1csc(n1)CC(NC(=O)C1CC1C)C(=O)N1CCCC(N1)C(=O)OCC(C)(C)C2	%	22.6
CCc1c2c(nc3ccc(O)cc13)-c1cc3c(c(=O)n1C2)COC(=O)[C@]3(O)CC + CCn1c(-c2cccnc2C(C)OC)c2c3cc(ccc31)N1CCOC(CC(NC(=O)C(C(C)C)N(C)C(=O)C3(F)CCN(C(=O)C#CC(C)(C)N(C)C)CC3)C(=O)N3CCCC(N3)C(=O)OCC(C)(C)C2)C1	%	73.3
CC1(C)CCC(Nc2ncc(C(F)(F)F)c(-c3c[nH]c4c(P(C)(C)=O)c(C#N)ccc34)n2)CN1 (centres undefined) + CCn1c(-c2cc(N3CCN(C)CC3)cnc2C(C)OC)c2c3cc(ccc31)-c1csc(n1)CC(NC(=O)C1CC1C)C(=O)N1CCCC(N1)C(=O)OCC(C)(C)C2	%	24.8

Consider the record given below.
The value of viability, T/C measured for the molecule CC1(C)CCC(Nc2ncc(C(F)(F)F)c(-c3c[nH]c4c(P(C)(C)=O)c(C#N)ccc34)n2)CN1 (centres undefined) + CCn1c(-c2cccnc2C(C)OC)c2c3cc(ccc31)N1CCOC(CC(NC(=O)C(C(C)C)N(C)C(=O)C3(F)CCN(C(=O)C#CC(C)(C)N(C)C)CC3)C(=O)N3CCCC(N3)C(=O)OCC(C)(C)C2)C1 turned out to be 69.3

###

test system: 565726-208-R1-J5-PDC complex spheroids, growth inhibition; assay: Anticancer human tumor 565726-208-R1-J5-PDC cell line growth inhibition [RAS]; conditions: second compound 0.00949 µM; first compound 0.0316 µM; hits give low values;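 further: spheroids exposed to compounds for seven days before readout; 100% = DMSO vehicle control viability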
// values below are reported viability, T/C
Return type: number; implicit unit %.

compound	viability, T/C (%)
C=CC(=O)Nc1cc(Nc2nccc(-c3cn(C)c4ccccc34)n2)c(OC)cc1N(C)CCN(C)C + CCn1c(-c2cc(N3CCN(C)CC3)cnc2C(C)OC)c2c3cc(ccc31)-c1csc(n1)CC(NC(=O)C1CC1C)C(=O)N1CCCC(N1)C(=O)OCC(C)(C)C2	34.9
C=CC(=O)N1CCN(c2nc(OCC3CCCN3C)nc3c(F)c(-c4nc(N)cc(C)c4C(F)(F)F)c(Cl)cc23)C(C)C1 (stereo not drawn) + CCn1c(-c2cccnc2C(C)OC)c2c3cc(ccc31)N1CCOC(CC(NC(=O)C(C(C)C)N(C)C(=O)C3(F)CCN(C(=O)C#CC(C)(C)N(C)C)CC3)C(=O)N3CCCC(N3)C(=O)OCC(C)(C)C2)C1	104
O=C(c1ccc(F)c(F)c1Nc1ccc(I)cc1F)N1CC(O)([C@@H]2CCCCN2)C1 + CCn1c(-c2cc(N3CCN(C)CC3)cnc2C(C)OC)c2c3cc(ccc31)-c1csc(n1)CC(NC(=O)C1CC1C)C(=O)N1CCCC(N1)C(=O)OCC(C)(C)C2	27.8
CC(C)NCC(C(=O)N1CCN(c2ncnc3c2C(C)CC3O)CC1)c1ccc(Cl)cc1 (stereo not drawn) + CCn1c(-c2cc(N3CCN(C)CC3)cnc2C(C)OC)c2c3cc(ccc31)-c1csc(n1)CC(NC(=O)C1CC1C)C(=O)N1CCCC(N1)C(=O)OCC(C)(C)C2	42.5
CC1(O)CCCC1n1c(=O)c(C(F)F)cc2cnc(NC3CCN(S(C)(=O)=O)CC3)nc21 (stereo not drawn) + CCn1c(-c2cccnc2C(C)OC)c2c3cc(ccc31)N1CCOC(CC(NC(=O)C(C(C)C)N(C)C(=O)C3(F)CCN(C(=O)C#CC(C)(C)N(C)C)CC3)C(=O)N3CCCC(N3)C(=O)OCC(C)(C)C2)C1	87.1
C[C@@H](NC(=O)c1ncnc(N)c1Cl)c1ncc(C(=O)Nc2cc(C(F)(F)F)c(Cl)cn2)s1 + CCn1c(-c2cccnc2C(C)OC)c2c3cc(ccc31)N1CCOC(CC(NC(=O)C(C(C)C)N(C)C(=O)C3(F)CCN(C(=O)C#CC(C)(C)N(C)C)CC3)C(=O)N3CCCC(N3)C(=O)OCC(C)(C)C2)C1	108

The value of viability, T/C measured for the compound CC1(O)CCCC1n1c(=O)c(C(F)F)cc2cnc(NC3CCN(S(C)(=O)=O)CC3)nc21 (stereo not drawn) + CCn1c(-c2cc(N3CCN(C)CC3)cnc2C(C)OC)c2c3cc(ccc31)-c1csc(n1)CC(NC(=O)C1CC1C)C(=O)N1CCCC(N1)C(=O)OCC(C)(C)C2 turned out to be 41.4

The value of viability, T/C measured for the compound CC(Nc1ccc2c(c1)OCCn1cc(N3C(=O)OCC3C(F)F)nc1-2)C(N)=O (stereo not drawn) + CCn1c(-c2cccnc2C(C)OC)c2c3cc(ccc31)N1CCOC(CC(NC(=O)C(C(C)C)N(C)C(=O)C3(F)CCN(C(=O)C#CC(C)(C)N(C)C)CC3)C(=O)N3CCCC(N3)C(=O)OCC(C)(C)C2)C1 turned out to be 92.3
